Reference for the values: patent US20080058383A1

Some compounds, each annotated with its measured ARAF % ANTAGONIST.
- Experimental Target: androgen receptor (CMV-hAR) in CV-1 cells (Homo sapiens)
- Construct: expressed in transfected cells
- Sequence (P10275 1-920): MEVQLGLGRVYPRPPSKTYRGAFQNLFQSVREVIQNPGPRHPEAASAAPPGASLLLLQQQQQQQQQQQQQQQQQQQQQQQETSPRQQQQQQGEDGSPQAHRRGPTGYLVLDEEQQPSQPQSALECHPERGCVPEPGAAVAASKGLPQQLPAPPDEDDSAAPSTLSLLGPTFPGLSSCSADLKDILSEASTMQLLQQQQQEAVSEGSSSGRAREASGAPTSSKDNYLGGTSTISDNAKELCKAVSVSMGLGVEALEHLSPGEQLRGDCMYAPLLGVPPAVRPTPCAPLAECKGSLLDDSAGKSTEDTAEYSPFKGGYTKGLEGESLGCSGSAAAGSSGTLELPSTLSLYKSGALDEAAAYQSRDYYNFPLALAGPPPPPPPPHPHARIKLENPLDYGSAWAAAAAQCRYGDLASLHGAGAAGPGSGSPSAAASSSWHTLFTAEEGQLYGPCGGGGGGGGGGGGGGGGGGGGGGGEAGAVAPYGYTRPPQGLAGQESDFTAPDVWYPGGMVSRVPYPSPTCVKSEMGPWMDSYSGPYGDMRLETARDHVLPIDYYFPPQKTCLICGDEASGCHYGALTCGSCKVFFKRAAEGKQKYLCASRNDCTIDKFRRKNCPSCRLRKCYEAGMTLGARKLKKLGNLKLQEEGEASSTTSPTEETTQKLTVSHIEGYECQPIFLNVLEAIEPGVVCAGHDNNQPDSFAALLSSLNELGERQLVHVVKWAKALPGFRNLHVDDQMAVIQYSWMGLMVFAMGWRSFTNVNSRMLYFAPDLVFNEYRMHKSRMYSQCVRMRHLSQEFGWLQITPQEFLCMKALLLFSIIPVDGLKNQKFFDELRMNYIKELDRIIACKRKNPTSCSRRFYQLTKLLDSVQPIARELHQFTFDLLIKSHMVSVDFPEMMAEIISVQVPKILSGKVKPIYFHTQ
- Test Protocol: AR transactivation assay, antagonist mode (ARAF cells, ALP reporter, presence of 0.1 nM Mibolerone)
- Assay type: cell-based
- Settings: decrease in ALP activity in the presence of 0.1 nM Mibolerone
The reply should contain only the number, in %.

The observed ARAF % ANTAGONIST for CC[C@H](C)[C@@H](CO)Nc1ccc([N+](=O)[O-])c(C)n1 when tested with androgen receptor (CMV-hAR) in CV-1 cells (Homo sapiens) stands at 87.4

The observed ARAF % ANTAGONIST for CCCC(CO)Nc1ccc([N+](=O)[O-])c(C(F)(F)F)c1 (centres unmarked) when tested with androgen receptor (CMV-hAR) in CV-1 cells (Homo sapiens) stands at 92

* * *

- Experimental Target: androgen receptor (CMV-hAR) in CV-1 cells (Homo sapiens)
- Construct: expressed in transfected cells
- Test Protocol: AR transactivation assay, agonist mode (ARAF cells, ALP reporter, absence of Mibolerone)
- Type: cell-based
- Settings: CV-1 cells stably expressing hAR and MMTV-ALP, absence of Mibolerone, 48 hr; read-out: ARAF EC50
Some compounds, each annotated with its measured log10(EC50).
A value of 2 here means EC50 of 100 in nM, since values are log10.

The compound listed as CCCC[C@@H](CO)Nc1ccc([N+](=O)[O-])c(C)n1 has a reported log10(EC50) of 2.53

Continuing:
The compound listed as CCCC(CO)Nc1ccc([N+](=O)[O-])c(C)c1 (centres unmarked) has a reported log10(EC50) of 2.45

The compound listed as Cc1nc(NC(C)(C)CO)ccc1[N+](=O)[O-] has a reported log10(EC50) of 2.57

The compound listed as Cc1cc(NC(C)(C)CO)ccc1[N+](=O)[O-] has a reported log10(EC50) of 1.91

The compound listed as Cc1nc(N[C@H](CO)CSCc2ccccc2)ccc1[N+](=O)[O-] has a reported log10(EC50) of 3.27

* * *

Some compounds, each annotated with its measured pIC50.
- Experimental Target: androgen receptor (CMV-hAR) in CV-1 cells (Homo sapiens)
- Construct: expressed in transfected cells
- Test Protocol: AR transactivation assay, antagonist mode (ARAF cells, ALP reporter, presence of 0.1 nM Mibolerone)
- Assay type: cell-based
- Settings: CV-1 cells stably expressing hAR and MMTV-ALP, presence of 0.1 nM Mibolerone, 48 hr; read-out: ARAF IC50
Scale: pIC50 equals -log10([C]), with [C] in mol/L.

The compound listed as CCCC(CO)Nc1ccc([N+](=O)[O-])c(C)c1 (centres unmarked) has a reported pIC50 of 7.59

The compound listed as CCCC(CO)Nc1ccc([N+](=O)[O-])c(C(F)(F)F)c1 (centres unmarked) has a reported pIC50 of 6.31

The compound listed as Cc1nc(NC(C)(C)CO)ccc1[N+](=O)[O-] has a reported pIC50 of 7.65

The compound listed as Cc1nc(N[C@H](CO)CSCc2ccccc2)ccc1[N+](=O)[O-] has a reported pIC50 of 7.11

Continuing:
The compound listed as CCC[C@@H](CO)Nc1ccc([N+](=O)O)cc1 [Example-103, (S)-2-(4-Nitro-phenylamino)-pentan-1-ol] has a reported pIC50 of 6.87

* * *

- Experimental Target: androgen receptor (CMV-hAR) in CV-1 cells (Homo sapiens, UniProt P10275)
- Construct: expressed in transfected cells
- Test Protocol: AR transactivation assay, agonist mode (ARAF cells, ALP reporter, absence of Mibolerone)
- Type: cell-based
- Settings: ALP activity in absence of Mibolerone compared to standard activation curve of Mibolerone alone
- Experimental: The agonist and antagonist properties of compounds were determined using a cell-based system expressing stably integrated androgen receptor and an androgen responsive reporter gene. […] The cells were counted in a Birch chamber and diluted to a concentration of 100 000 cells/ml. […] After 48 hr 5 μl of cell medium was added to white 384 plates with 100 μl of ALP substrate buffer. […] Antagonist activity was calculated from the decrease in ALP activity in the presence of 0.1 nM Mibolerone. […]
Classify as follows. Reported ARAF % AGONIST greater than or equal to 9%: fulfilled. Reported ARAF % AGONIST below: not fulfilled.

Record excerpt, results attached:
Determine whether this molecule has ARAF % AGONIST no lower than 9%: CC(C)(CO)Nc1ccc([N+](=O)[O-])c(C(F)(F)F)c1 [Example-1]
fulfilled

Determine whether this molecule has ARAF % AGONIST no lower than 9%: Cc1cc(NC(C)(C)CO)ccc1[N+](=O)[O-] [Example-5]
fulfilled

Determine whether this molecule has ARAF % AGONIST no lower than 9%: CCCC(CO)Nc1ccc([N+](=O)[O-])c(C)c1 (stereo not shown) [Example-78]
fulfilled

Continuing:
Determine whether this molecule has ARAF % AGONIST no lower than 9%: CC(C)[C@@H](CO)Nc1ccc([N+](=O)[O-])c(C(F)(F)F)c1 [Example-30]
not fulfilled

Determine whether this molecule has ARAF % AGONIST no lower than 9%: CCCC[C@@H](CO)Nc1ccc([N+](=O)[O-])c(C)n1 [Example-60]
fulfilled

Determine whether this molecule has ARAF % AGONIST no lower than 9%: Cc1nc(N[C@H](CO)CSCc2ccccc2)ccc1[N+](=O)[O-] [Example-65]
not fulfilled

Determine whether this molecule has ARAF % AGONIST no lower than 9%: Cc1nc(NC(C)(C)CO)ccc1[N+](=O)[O-] [Example-8]
fulfilled

* * *

- Experimental Target: Recombinant human androgen receptor (hAR) (Homo sapiens, UniProt P10275)
- Construct: made in house; host or cells: Sf9 insect cells
- Sequence (P10275 1-920): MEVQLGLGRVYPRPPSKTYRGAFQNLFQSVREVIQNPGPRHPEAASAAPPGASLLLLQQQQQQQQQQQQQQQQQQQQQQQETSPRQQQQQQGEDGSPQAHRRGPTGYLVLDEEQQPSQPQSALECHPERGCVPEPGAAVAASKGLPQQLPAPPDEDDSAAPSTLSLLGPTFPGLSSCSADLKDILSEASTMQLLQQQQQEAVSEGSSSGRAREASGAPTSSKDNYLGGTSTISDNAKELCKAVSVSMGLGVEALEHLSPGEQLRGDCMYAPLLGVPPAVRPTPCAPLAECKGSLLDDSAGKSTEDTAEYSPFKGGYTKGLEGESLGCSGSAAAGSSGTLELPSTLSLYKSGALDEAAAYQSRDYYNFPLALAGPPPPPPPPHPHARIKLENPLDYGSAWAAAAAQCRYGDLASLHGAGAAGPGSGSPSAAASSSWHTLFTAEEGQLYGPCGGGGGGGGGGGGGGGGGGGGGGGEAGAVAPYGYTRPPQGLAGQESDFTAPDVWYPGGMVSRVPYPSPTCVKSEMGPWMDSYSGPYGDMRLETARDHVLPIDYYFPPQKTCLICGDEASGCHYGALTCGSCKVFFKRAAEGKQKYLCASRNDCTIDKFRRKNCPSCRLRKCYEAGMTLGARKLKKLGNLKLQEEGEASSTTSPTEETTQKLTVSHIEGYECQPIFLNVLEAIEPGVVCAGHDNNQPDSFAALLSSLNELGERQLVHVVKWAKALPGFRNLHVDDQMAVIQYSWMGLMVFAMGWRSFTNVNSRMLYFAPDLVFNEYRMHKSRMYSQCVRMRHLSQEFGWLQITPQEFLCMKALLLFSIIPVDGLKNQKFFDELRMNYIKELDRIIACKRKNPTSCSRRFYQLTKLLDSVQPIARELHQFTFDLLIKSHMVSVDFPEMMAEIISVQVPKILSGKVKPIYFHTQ
- Test Protocol: AR competition binding assay (3H-mibolerone tracer)
- Settings: competition with 3H-Mib, hAR extract from Sf9 cells, +4° C. over night; read-out: AR_LT IC50
pIC50: −log10 of the molar value.
Classify as follows. Reported pIC50 greater than or equal to 7: yes (1). Reported pIC50 below: no (0).

Record excerpt, results attached:
Determine whether this molecule has pIC50 no lower than 7: CCCC(CO)Nc1ccc([N+](=O)[O-])c(C)c1 (stereo not drawn) [Example-78]
yes (1)

Determine whether this molecule has pIC50 no lower than 7: Cc1nc(N[C@H](CO)CSCc2ccccc2)ccc1[N+](=O)[O-] [Example-65]
yes (1)

Determine whether this molecule has pIC50 no lower than 7: CC(C)(CO)Nc1ccc([N+](=O)[O-])c(C(F)(F)F)c1 [Example-1]
yes (1)

Continuing:
Determine whether this molecule has pIC50 no lower than 7: Cc1cc(NC(C)(C)CO)ccc1[N+](=O)[O-] [Example-5]
yes (1)

Determine whether this molecule has pIC50 no lower than 7: Cc1cc(NCCNc2ccc([N+](=O)[O-])cn2)ccc1[N+](=O)[O-] [Example-86]
no (0)
